The origin of these recorded values is patent US9440953B2.

Target: recombinant human AMCase (Homo sapiens, UniProt Q9BZP6)
Sequence (Q9BZP6 22-476): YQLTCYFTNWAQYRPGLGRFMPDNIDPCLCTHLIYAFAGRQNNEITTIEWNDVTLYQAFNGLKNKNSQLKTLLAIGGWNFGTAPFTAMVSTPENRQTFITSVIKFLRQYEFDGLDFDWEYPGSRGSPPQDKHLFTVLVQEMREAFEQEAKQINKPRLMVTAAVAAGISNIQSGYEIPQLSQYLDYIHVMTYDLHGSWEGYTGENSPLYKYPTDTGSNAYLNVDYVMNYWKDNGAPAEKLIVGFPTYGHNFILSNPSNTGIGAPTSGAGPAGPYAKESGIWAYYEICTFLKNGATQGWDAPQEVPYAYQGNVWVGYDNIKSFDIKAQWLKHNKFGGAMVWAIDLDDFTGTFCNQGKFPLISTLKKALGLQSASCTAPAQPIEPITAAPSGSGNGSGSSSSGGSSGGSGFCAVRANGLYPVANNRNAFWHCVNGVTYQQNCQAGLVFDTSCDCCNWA
Test: Human AMCase Activity Assay
Settings: recombinant hAMCase, 4-methylumbelliferyl B-D-N,N′-diacetylchitobioside substrate, citrate buffer pH 5.2, 37° C., 60 minutes
Method: Human AMCase Activity Assay The assay was run in the 96-well plate format, each reaction in the total volume of 100 μL. 4-Methylumbelliferyl B-D-N,N′-diacetylchitobioside hydrate was used as a substrate for the enzyme. Upon hydrolysis by AMCase, the substrate releases 4-methylumbelliferyl (4MU) that, when ionized in basic pH, emits fluorescence at 460 nm. Briefly, 40 μL of a substrate was added to each well, followed by 10 μL of compound dilution and 50 μL of hAMCase recombinant enzyme solution. […]
Readings of IC50 for the listed molecules
VALUE TYPE: IC50

{"MOLECULE": "Nc1n[nH]c(N2CCC(N(CCc3ccc(Cl)cc3)CC(C(=O)O)c3ccc(Cl)cc3)CC2)n1 (stereo not shown)", "VALUE TYPE": "IC50", "OBSERVED MEASUREMENT": "10 to 100 nM"}
{"MOLECULE": "Nc1n[nH]c(N2CCC(N(CCc3ccc(Cl)cc3)Cc3ccc(F)c(C(=O)O)c3)CC2)n1", "VALUE TYPE": "IC50", "OBSERVED MEASUREMENT": "10 to 100 nM"}
{"MOLECULE": "NC(=O)c1ccc(CN(CCc2ccc(Br)cc2)C2CCN(c3nc(N)n[nH]3)CC2)cc1", "VALUE TYPE": "IC50", "OBSERVED MEASUREMENT": "1 to 10 nM"}
{"MOLECULE": "CS(=O)(=O)NC(=O)c1cc(CN(CCc2ccc(Cl)cc2)C2CCN(c3nc(N)n[nH]3)CC2)ccc1Cl", "VALUE TYPE": "IC50", "OBSERVED MEASUREMENT": "10 to 100 nM"}
{"MOLECULE": "Nc1n[nH]c(N2CCC(N(CCc3ccc(Cl)cc3)C(CC(=O)O)c3ccc(Cl)cc3)CC2)n1 (stereo not shown)", "VALUE TYPE": "IC50", "OBSERVED MEASUREMENT": "1000 to 10000 nM"}
{"MOLECULE": "CC(C)NC(=O)CN(CCc1ccc(Cl)cc1)C1CCN(c2nc(N)n[nH]2)CC1", "VALUE TYPE": "IC50", "OBSERVED MEASUREMENT": "100 to 1000 nM"}
{"MOLECULE": "Cc1ccc(S(=O)(=O)NCCN(CCc2ccc(Br)cc2)C2CCN(c3nc(N)n[nH]3)CC2)cc1", "VALUE TYPE": "IC50", "OBSERVED MEASUREMENT": "1 to 10 nM"}
{"MOLECULE": "Nc1n[nH]c(N2CCC(N(CCC(=O)O)CCc3ccc(Cl)cc3)CC2)n1", "VALUE TYPE": "IC50", "OBSERVED MEASUREMENT": "1000 to 10000 nM"}
{"MOLECULE": "Nc1n[nH]c(N2CCC(N(CCNC(=O)c3ccccc3)CCc3ccc(Cl)cc3)CC2)n1", "VALUE TYPE": "IC50", "OBSERVED MEASUREMENT": "10 to 100 nM"}
{"MOLECULE": "Nc1n[nH]c(N2CCC(N(CCNC(=O)C(F)(F)F)CCc3ccc(Cl)cc3)CC2)n1", "VALUE TYPE": "IC50", "OBSERVED MEASUREMENT": "100 to 1000 nM"}
{"MOLECULE": "CC(C)NC(=O)NCCN(CCc1ccc(Cl)cc1)C1CCN(c2nc(N)n[nH]2)CC1", "VALUE TYPE": "IC50", "OBSERVED MEASUREMENT": "100 to 1000 nM"}
{"MOLECULE": "Nc1n[nH]c(N2CCC(N(CCc3ccc(Br)cc3)Cc3ccc(S(N)(=O)=O)cc3)CC2)n1", "VALUE TYPE": "IC50", "OBSERVED MEASUREMENT": "1 to 10 nM"}
{"MOLECULE": "Nc1n[nH]c(N2CCC(N(CCc3ccc(Cl)cc3)Cc3ccccc3C(=O)O)CC2)n1", "VALUE TYPE": "IC50", "OBSERVED MEASUREMENT": "100 to 1000 nM"}
{"MOLECULE": "CC(=O)NS(=O)(=O)c1ccc(CN(CCc2ccc(Br)cc2)C2CCN(c3nc(N)n[nH]3)CC2)cc1", "VALUE TYPE": "IC50", "OBSERVED MEASUREMENT": "1 to 10 nM"}
{"MOLECULE": "Nc1n[nH]c(N2CCC(N(CCc3ccc(Cl)cc3)Cc3cccc(-c4nnn[nH]4)c3)CC2)n1", "VALUE TYPE": "IC50", "OBSERVED MEASUREMENT": "1 to 10 nM"}
{"MOLECULE": "CS(=O)(=O)NCCCN(CCc1ccc(Br)cc1)C1CCN(c2nc(N)n[nH]2)CC1", "VALUE TYPE": "IC50", "OBSERVED MEASUREMENT": "1 to 10 nM"}
{"MOLECULE": "CS(=O)(=O)NC(=O)c1cccc(CN(CCc2ccc(Cl)cc2)C2CCN(c3nc(N)n[nH]3)CC2)c1", "VALUE TYPE": "IC50", "OBSERVED MEASUREMENT": "1 to 10 nM"}
{"MOLECULE": "Nc1n[nH]c(N2CCC(N(CCc3ccc(Cl)cc3)Cc3cccc(S(=O)(=O)NCC(F)(F)F)c3)CC2)n1", "VALUE TYPE": "IC50", "OBSERVED MEASUREMENT": "10 to 100 nM"}
{"MOLECULE": "Nc1n[nH]c(N2CCC(N(CCc3ccc(Cl)cc3)Cc3nnn[nH]3)CC2)n1", "VALUE TYPE": "IC50", "OBSERVED MEASUREMENT": "10 to 100 nM"}
{"MOLECULE": "CC(=O)NS(=O)(=O)c1cccc(CN(CCc2ccc(Br)cc2)C2CCN(c3nc(N)n[nH]3)CC2)c1", "VALUE TYPE": "IC50", "OBSERVED MEASUREMENT": "1 to 10 nM"}
{"MOLECULE": "CS(=O)(=O)Nc1ccc(CN(CCc2ccc(Cl)cc2)C2CCN(c3nc(N)n[nH]3)CC2)cc1", "VALUE TYPE": "IC50", "OBSERVED MEASUREMENT": "1 to 10 nM"}
{"MOLECULE": "CC(=O)NS(=O)(=O)CCN(CCc1ccc(Cl)cc1)C1CCN(c2nc(N)n[nH]2)CC1", "VALUE TYPE": "IC50", "OBSERVED MEASUREMENT": "10 to 100 nM"}
{"MOLECULE": "Cc1ccc(S(=O)(=O)NCCCN(CCc2ccc(Br)cc2)C2CCN(c3nc(N)n[nH]3)CC2)cc1", "VALUE TYPE": "IC50", "OBSERVED MEASUREMENT": "1 to 10 nM"}
{"MOLECULE": "Nc1n[nH]c(N2CCC(N(CCc3ccc(Br)cc3)Cc3cccc(C(=O)O)c3)CC2)n1", "VALUE TYPE": "IC50", "OBSERVED MEASUREMENT": "1 to 10 nM"}
{"MOLECULE": "Nc1n[nH]c(N2CCC(N(CCCC(=O)O)CCc3ccc(Cl)cc3)CC2)n1", "VALUE TYPE": "IC50", "OBSERVED MEASUREMENT": "100 to 1000 nM"}
{"MOLECULE": "Nc1n[nH]c(N2CCC(N(CCc3ccc(Br)cc3)Cc3ccc(C(=O)O)cc3)CC2)n1", "VALUE TYPE": "IC50", "OBSERVED MEASUREMENT": "1 to 10 nM"}
{"MOLECULE": "Cc1cc(CN(CCc2ccc(Cl)cc2)C2CCN(c3nc(N)n[nH]3)CC2)ccc1C(=O)O", "VALUE TYPE": "IC50", "OBSERVED MEASUREMENT": "1 to 10 nM"}
{"MOLECULE": "Nc1n[nH]c(N2CCC(N(CCc3ccc(Cl)cc3)CC3(C(=O)O)CC3)CC2)n1", "VALUE TYPE": "IC50", "OBSERVED MEASUREMENT": "1000 to 10000 nM"}
{"MOLECULE": "CS(=O)(=O)Nc1cccc(CN(CCc2ccc(Cl)cc2)C2CCN(c3nc(N)n[nH]3)CC2)c1", "VALUE TYPE": "IC50", "OBSERVED MEASUREMENT": "1 to 10 nM"}
{"MOLECULE": "Cc1ccc(CN(CCc2ccc(Cl)cc2)C2CCN(c3nc(N)n[nH]3)CC2)cc1C(=O)O", "VALUE TYPE": "IC50", "OBSERVED MEASUREMENT": "10 to 100 nM"}
{"MOLECULE": "CS(=O)(=O)NC(=O)c1ccc(CN(CCc2ccc(Cl)cc2)C2CCN(c3nc(N)n[nH]3)CC2)cc1", "VALUE TYPE": "IC50", "OBSERVED MEASUREMENT": "1 to 10 nM"}
